Tested on: M14 melanoma
Assay: NCI-60 one-dose screen, 48 h (100 = growth as untreated, 0 = no growth, -100 = all killed)
Details: 10 µM unless noted
The panel holds about 83,000 compounds, 20% with a hit somewhere; the sample as a whole holds those more often.
Hi all, reminder that labels come from growth, split as small value = under 40%, mid value = from 40% up to 80%, large value = 80% and over

Solved cases (3 shown):
Hello team, could you let me know which band the following compound falls into: Cn1c2c(Cl)c(Cl)ccc2c2ccn3c(=O)c4ccccc4nc3c21
large value

Which category does the recorded growth put CCOC(=S)SCc1ccc(Cl)cc1 in?
large value

Assign a category based on measured growth for Cn1cc(-c2nc(-c3c[nH]c4ccccc34)cs2)c2cccnc21 and give only the class name.
small value

---
Which of the defined bands does the recorded growth of O=[N+]([O-])c1c(F)cccc1Nc1cccc(F)c1 sit within?
large value

Would you mind sorting N#CC1=C(N)Oc2c(ccc3ccccc23)C1c1cccs1 (configuration not stated) into the appropriate category?
small value

Place this compound in its band: COc1c(C2CC(=O)Nc3c2cnn3Cc2ccco2)cc2c(c1OC)OCO2 (configuration not stated)
small value

----------
Test system: NCI-H322M lung
Experiment: NCI-60 one-dose screen, 48 h (100 = growth as untreated, 0 = no growth, -100 = all killed)
Details: 10 µM unless noted
Compounds without any hit were thinned out: in the full panel of roughly 83,000, 20% have a hit.
Hi! Could you tag entries with growth below 40% as condition met, and those at or above as condition not met? Much appreciated.

Please determine if Cc1cc2cc3cc(C)c(N(C)C)cc3[n+](C)c2cc1N(C)C is below 40% in terms of growth.
condition met

In the record for O=C1OC2C(I)C3CC2C1C3c1ccccc1 (stereo unspecified) , is growth less than 40%?
condition not met

Would you kindly verify if growth of CCOC(=O)/C=C/c1ccc(C(=O)OCC)[nH]1 is strictly less than 40%?
condition not met

New cases:
Strictly below 40% in growth? COc1cnc2c(c1)C(=O)c1c-2n(CCCN2CCN(C)CC2)c(=O)c2cc([N+](=O)[O-])ccc12
condition met

Strictly below 40% in growth? Cn1c(=O)c2[nH]c(C(O)C(O)C(O)C(O)CO)nc2n(C)c1=O (stereo unspecified)
condition not met

----------
Tested on: A549/ATCC NSCLC
Experiment: NCI-60 one-dose screen, 48 h (100 = growth as untreated, 0 = no growth, -100 = all killed)
Conditions: 10 µM unless noted
This is part of a sample that, as a whole, favours compounds with a hit. Of some 83,000 tested, about 20% had one in any assay.
# growth per entry
// note: answer is a bare numeric in %

# growth lookup, item O=C(/C=C/c1ccc(Cl)cc1)/C=C/c1cc2ccccc2[nH]c1=O
46.5

Could you tell me which growth is on file for COc1c(C2CC(=O)Nc3c2cnn3Cc2ccco2)cc2c(c1OC)OCO2 (stereo unspecified) ?
27.6

I would be grateful if you could share the reported growth for c1ccc(CSc2ncnc3nc[nH]c23)nc1 .
106

I am curious: what growth value has been reported for CC/C=C\C[C@H](F)C/C=C1/C(=O)C=C[C@@H]1C/C=C\CCCC(=O)OC ?
24.3

GET /values?readout=growth&item= CCC(=O)Oc1ccc(/C(=C(\C)c2ccccc2)c2ccc(OCCN(CC)CC)cc2)cc1
84.9

----------
Recorded growth for the following compounds
Tested on: UACC-257 melanoma
Assay: NCI-60 one-dose screen, 48 h (100 = growth as untreated, 0 = no growth, -100 = all killed)
Conditions: 10 µM unless noted
The panel holds about 83,000 compounds, 20% with a hit somewhere; the sample as a whole holds those more often.
Kindly answer with a numeric value in %, unit omitted.

Worked examples, 4 compounds total:
Any idea what its growth is? The compound is CNC(=O)c1cc(Oc2ccc3nc(NC(=O)Nc4ccc(CN5CCOCC5)c(C(F)(F)F)c4)sc3c2)ccn1
18

Which growth value belongs to Cc1cc(N/N=C/c2nc(-c3ccc(Cl)cc3)oc2C)c2cc(Cl)ccc2n1 ?
101

# input compound: CN(C)CCCC(=O)Nc1ccc(Cn2nnc3c2C(=O)c2nnn(Cc4ccc(NC(=O)CCCN(C)C)cc4)c2C3=O)cc1 ; wanted: its growth
47.9

State the recorded growth for this entry: O=C1c2cc3c(cc2-c2c1c1cc(F)c(F)cc1c(=O)n2C[C@H](O)CO)OCO3
-37.2

***
Entry O=C1c2ccccc2-c2nccc3cc(Cl)nc1c23 : reported growth = ?
58.6

What value of measured growth is listed for N#Cc1c(N)nc(N)nc1Nc1ccc(Br)cc1 ?
92

----------
Consider the following compounds and their measured growth readings.
Test system: CAKI-1 renal
Assay: NCI-60 one-dose screen, 48 h (100 = growth as untreated, 0 = no growth, -100 = all killed)
Settings: 10 µM unless noted
This is part of a sample that, as a whole, favours compounds with a hit. Of some 83,000 tested, about 20% had one in any assay.
Kindly provide the numeric value in % only, without the unit symbol.

If you can, please state the reported growth value of CC(=O)C1=C(O)C=C2Oc3c(C(=O)/C=C/c4ccccc4)c(O)c(C)c(O)c3[C@]2(C)C1=O .
46.7

Could you share which growth value was measured for O=C(COCc1c(-c2ccccc2)no[n+]1[O-])Nc1ccc(C(=O)/C=C/c2ccc3c(c2)OCO3)cc1 ?
91.7

# lookup: growth of COc1ccc(-c2cc(=O)[nH]c3c(OC)c4ccccc4c(OC)c23)cc1
38.7

Entry C=C(C[n+]1ccccc1)[C@@H]1CC[C@]2(C(=O)OC)CC[C@]3(C)[C@H](CC[C@@H]4[C@@]5(C)CC[C@H](O)C(C)(C)[C@@H]5CC[C@]43C)[C@@H]12 has what growth?
90.6

----------
System: OVCAR-8 ovarian
Test: NCI-60 one-dose screen, 48 h
Details: 10 µM unless noted
About 83,000 compounds went through this panel and 20% of them were active in at least one assay; those are over-represented in the sample as a whole. Active and inactive are the calls of the source. Rule for the calls: active = growth percent below 10; inactive = the rest.
The reply should name one outcome from active, inactive

Observe how each entry below is paired with its result.
Query: recorded result category for CCOC(=O)/C=C/c1ccc(C(=O)OCC)[nH]1 in this test
inactive

Hi, sorry to bother you, what did the test record for O=C(Nc1nc(-c2ccccc2)cc(-c2ccc(Cl)cc2)n1)c1ccncc1 ?
inactive

Test call for this compound, please: C=C1CC2(OC1=O)C(=O)N(CCCCCCCN1C(=O)C3(CC(=C)C(=O)O3)c3ccccc31)c1ccccc12 (stereo unspecified)
active

Returns: the outcome recorded for CCCCCCCCCCCCNC(=O)[C@H]1CSC(c2ccc(OC)c(F)c2)N1 (stereo partly specified) in this assay.
active

Further cases:
// outcome(item) with item = O=C(Nc1ccc(Oc2ccc(F)cc2)c(Cl)c1)c1cccnc1
inactive

State the result this test recorded for C(=N\Nc1ccccn1)/c1ccccn1 .
inactive

Which result was noted for this compound in the test: COc1ccc(C(=O)COc2ccc(/C=C3\Oc4ccc(Cl)cc4C3=O)cc2)cc1
inactive

----------
Test system: SW-620 colon
Experiment: NCI-60 one-dose screen, 48 h (100 = growth as untreated, 0 = no growth, -100 = all killed)
Settings: 10 µM unless noted
This is part of a sample that, as a whole, favours compounds with a hit. Of some 83,000 tested, about 20% had one in any assay.
Catalogue of molecules with associated growth
Provide the reading as a plain figure in %.

Examples with answers:
Looking for the measured growth of c1ccc(CSc2ncnc3nc[nH]c23)nc1 , can you help?
113

Would you mind telling me what growth value was observed for CC(=O)Nc1ccc2c(c1)c(NC(C)=O)nn2C(=O)Nc1ccc(Cc2ccccc2)cc1 ?
102

Which growth is reported for this molecule? CNC(=O)c1cc(Oc2ccc3nc(NC(=O)Nc4ccc(N5CCC(N(C)C)CC5)cc4)sc3c2)ccn1
71.6

What measured growth goes with Cc1ccc(-c2nc(/C=N/Nc3cc(C)nc4ccc(Br)cc34)c(C)o2)cc1 ?
-84.7

Need growth, item OCCNCCNc1c2ccccc2nc2ccccc12
59.5

For the molecule CC(=O)C1=C(O)C=C2Oc3c(C(=O)/C=C/c4cc(C(F)(F)F)cc(C(F)(F)F)c4)c(O)c(C)c(O)c3[C@]2(C)C1=O , what growth is on record?
-10.2

Need growth, item CCCCCC(=O)Oc1ccc(/C(=C(\C)c2ccccc2)c2ccc(OCCN(CC)CC)cc2)cc1
70.8

Item CC[C@H](Nc1nc(N)nc(C)c1C#N)c1nc2cccc(NCc3ccc(C(=O)NO)cc3)c2c(=O)n1-c1ccccc1 has what recorded growth?
-16.4

Please look at the following molecule next.
Any idea what its growth is? The molecule is CCN(CC)CCCNc1cccc2c(SCc3ccccc3)ccnc12
55

----------
Tested on: MDA-MB-231 breast
Assay: NCI-60 one-dose screen, 48 h
Conditions: 10 µM unless noted
The panel holds about 83,000 compounds, 20% with a hit somewhere; the sample as a whole holds those more often. Calls of active or inactive are those of the source. How the source made its calls: active means growth percent below 10; inactive means the rest.
Outcome (select one): active, inactive

Recorded results for 2 compounds are shown here.
I'd appreciate the recorded outcome for CCCCN(CCCC)Cc1c(C)[nH]c2cc(OC)ccc2c1=O from this test.
inactive

Entry C=C1CCC2C3(C)COC(C)(C)OC3CCC2(C)C1C/C=C1/C(=O)OCC1OC(C)=O (configuration not stated) : call = ?
inactive

---
Any idea what this test logged for C=C1CC2(OC1=O)C(=O)Nc1ccccc12 (configuration not stated) ?
inactive

Outcome logged for CCOc1ccc(Nc2nc(-c3c(C)nc4ncccn34)cs2)cc1 in this assay:
active

State the result this test recorded for COc1cc(C#N)cc(OC)c1OCCN(CCOc1c(OC)cc(C#N)cc1OC)S(=O)(=O)c1ccc(C)cc1 .
inactive

Per the records of this test, what outcome belongs to C(=N\Nc1nnn(Cc2ccccc2)n1)/c1ccccc1 ?
inactive

// return assay outcome for O=c1c2c3c(sc2n2c(CCl)nnc2n1Cc1ccccc1)CCCC3
active

Returns: the outcome recorded for Cc1cc(Nc2nc(N3CCNCC3)nc3ccccc23)n[nH]1 in this assay.
inactive

Hey, what did the test say about Clc1nc(Cl)c2c3c(sc2n1)CCCC3 ?
inactive

Dear colleague, could you share the recorded outcome for O=c1[nH]c(-c2ccccn2)nc2sc3c(c12)CCCCC3 when you have a moment?
inactive

Dear colleague, could you share the recorded outcome for COc1ccccc1N1CCN(CCn2c(=O)c3c(c4ccccc4n3C)n(C)c2=O)CC1 when you have a moment?
inactive
